Target: CDK19/Cyclin C (Homo sapiens)
Sequence (Q9BWU1 whole entry): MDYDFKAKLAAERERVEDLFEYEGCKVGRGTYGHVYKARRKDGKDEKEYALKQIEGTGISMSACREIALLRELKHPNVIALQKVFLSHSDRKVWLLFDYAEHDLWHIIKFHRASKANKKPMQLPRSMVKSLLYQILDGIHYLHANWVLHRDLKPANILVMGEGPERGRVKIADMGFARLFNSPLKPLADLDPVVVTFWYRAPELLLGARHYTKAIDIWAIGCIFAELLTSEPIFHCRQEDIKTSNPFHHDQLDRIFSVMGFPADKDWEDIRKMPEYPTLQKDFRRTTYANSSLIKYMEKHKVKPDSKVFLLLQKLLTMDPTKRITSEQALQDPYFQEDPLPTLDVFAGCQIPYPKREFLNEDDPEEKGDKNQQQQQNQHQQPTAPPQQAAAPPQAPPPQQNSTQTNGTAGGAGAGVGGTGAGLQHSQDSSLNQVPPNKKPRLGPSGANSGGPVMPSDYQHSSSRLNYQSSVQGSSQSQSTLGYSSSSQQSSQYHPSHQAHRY
Sequence (P24863 whole entry partner): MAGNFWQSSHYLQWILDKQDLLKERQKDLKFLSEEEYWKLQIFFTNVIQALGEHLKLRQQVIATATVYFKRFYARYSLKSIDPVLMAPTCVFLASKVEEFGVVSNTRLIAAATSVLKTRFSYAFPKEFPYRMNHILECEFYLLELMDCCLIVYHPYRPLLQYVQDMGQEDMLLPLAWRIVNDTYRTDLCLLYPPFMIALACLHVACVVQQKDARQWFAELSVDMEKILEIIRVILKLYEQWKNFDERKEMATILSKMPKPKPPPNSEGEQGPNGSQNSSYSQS
Assay: cell-based
quantityKind: pIC50
To interpret pIC50, take it as minus log10 of a concentration measured in moles per litre.

I looked up CCN1CCN(Cc2ccc(NC(=O)Nc3ccc(Oc4cc(NC)ncn4)cc3)cc2C(F)(F)F)CC1 and its pIC50 for CDK19/Cyclin C (Homo sapiens) was 8.23

====

Consider the following compounds and their measured pIC50 readings.
Biological target: CDK7 (Homo sapiens, UniProt P50613)
Sequence (P50613 whole entry): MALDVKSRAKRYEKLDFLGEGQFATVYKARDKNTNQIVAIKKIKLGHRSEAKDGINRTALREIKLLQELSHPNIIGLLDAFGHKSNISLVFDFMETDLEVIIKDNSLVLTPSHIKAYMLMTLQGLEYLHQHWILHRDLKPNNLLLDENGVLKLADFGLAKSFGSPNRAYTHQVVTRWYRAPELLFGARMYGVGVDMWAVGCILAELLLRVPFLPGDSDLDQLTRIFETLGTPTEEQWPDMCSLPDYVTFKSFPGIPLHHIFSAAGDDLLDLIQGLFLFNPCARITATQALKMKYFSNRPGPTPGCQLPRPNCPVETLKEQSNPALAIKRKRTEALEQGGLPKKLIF
Test: NanoBRET live-cell target engagement, NanoLuc-CDK7 in HEK-293
Format: binding
Details: CDK7; experiment 2; read-out: IC50
To interpret pIC50, take it as minus log10 of a concentration measured in moles per litre.

compound	pIC50
CS(=O)(=O)N1CCC(NC(=O)c2[nH]ncc2NC(=O)c2c(Cl)cccc2Cl)CC1 [NVP-LCQ195]	7.15
CC(C)c1cnn2c(NCc3ccccc3-n3cccn3)nc(OC3CCCNC3)nc12 (stereo not shown) [LDC4297]	7.82
CN1CCN(Cc2ccc(NC(=O)Nc3ccc(Oc4ccnc(N)n4)cc3)cc2C(F)(F)F)CC1 [K03861]	7.23

Here's the next entry for you.
pIC50 measured on CC(C)c1c2cc(-c3ccnc(N[C@H]4CC[C@H](NC5CCOCC5)CC4)n3)ccc2nn1C [LY2857785] = 7.47

====

Consider the following compounds and their measured IC50 readings.
Target: CDK10/Cyclin L2 (Homo sapiens, UniProt Q15131)
Sequence (Q15131 whole entry): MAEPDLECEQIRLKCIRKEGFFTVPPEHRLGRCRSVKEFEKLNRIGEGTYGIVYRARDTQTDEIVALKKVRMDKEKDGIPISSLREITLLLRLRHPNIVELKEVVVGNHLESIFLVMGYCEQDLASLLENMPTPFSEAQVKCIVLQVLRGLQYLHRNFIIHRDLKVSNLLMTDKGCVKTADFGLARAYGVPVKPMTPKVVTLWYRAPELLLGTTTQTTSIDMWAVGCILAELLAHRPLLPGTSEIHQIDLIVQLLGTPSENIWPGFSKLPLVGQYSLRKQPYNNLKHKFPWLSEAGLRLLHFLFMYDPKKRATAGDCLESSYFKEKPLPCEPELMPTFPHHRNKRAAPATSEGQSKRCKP
Test: NanoBRET live-cell target engagement, CDK10-NanoLuc/Cyclin L2 in HEK-293
Conditions: IC50 (nM), CDK10/L2; experiment 2
Field: numeric (nM). Do not append units.

compound	quantityKind	testResult
COc1ccc(F)cc1-c1cc(NC(=O)C2CCCNC2)ncc1Cl (centres unmarked) [CDK inhibitor 2]	IC50	230

Here's the next entry for you.
IC50 measured on CN1CCN(Cc2ccc(NC(=O)Nc3ccc(Oc4ccnc(N)n4)cc3)cc2C(F)(F)F)CC1 [K03861] = 530

====

Consider the following molecules and their measured inhibition at 10 µM readings.
Molecular target: CDK19/Cyclin C (Homo sapiens)
Assay: NanoBRET live-cell target engagement, NanoLuc-CDK19/Cyclin C in HEK-293
Details: read-out: Inhibition at 10µM (%), CDK19/C; experiment 2
Field: numeric (%). Do not append units.

// worked examples, inhibition at 10 µM included
molecule	units	inhibition at 10 µM
COc1ccc(F)cc1-c1cc(NC(=O)C2CCCNC2)ncc1Cl (centres unmarked)	%	70.1
Cn1cc(-c2ccc(-c3cncc(Cl)c3N3CCC4(CCNC4=O)CC3)cc2)cn1	%	90.6
CNC(=O)c1nn(C)c2c1C(C)(C)Cc1cnc(Nc3ccc(N4CCN(C)CC4)cc3)nc1-2	%	-6.6

inhibition at 10 µM measured on CC(C)(C)c1nc(-c2cccc(NS(=O)(=O)c3c(F)cccc3F)c2F)c(-c2ccnc(N)n2)s1 = -14

inhibition at 10 µM measured on CC(C)N1CCN(c2ccc(Nc3ncc4cc5n(c4n3)C3(CCCCC3)CNC5=O)nc2)CC1 = 18.2

====

Biological target: CDK2/Cyclin E1 (Homo sapiens)
Experiment: NanoBRET live-cell target engagement, CDK2-NanoLuc/Cyclin E1 in HEK-293
Assay type: binding
Conditions: CDK2/E1; 10µM; average of replicates; read-out: Inhibition at 10µM (%) Average
quantityKind: inhibition at 10 µM (%)
Field: numeric (%). Do not append units.

compound	quantityKind	testResult
CCN1CCN(Cc2ccc(NC(=O)Nc3ccc(Oc4cc(NC)ncn4)cc3)cc2C(F)(F)F)CC1	inhibition at 10 µM	2.9

inhibition at 10 µM measured on COc1cc(F)ccc1-c1cc(Nc2cc(CS(C)(=N)=O)ccn2)ncc1F (stereo not drawn) = 72.3

inhibition at 10 µM measured on C[C@H]1CC[C@H](n2c3cnccc3c3cnc(Nc4ccc5c(n4)CCN(C(=O)CO)C5)nc32)CC1 = 63.9

inhibition at 10 µM measured on CC(C)c1cnn2c(NCc3ccccc3)cc(NCCCCCCN)nc12 = 46.6

inhibition at 10 µM measured on CCCCOc1c(C(=O)c2c(F)cc(C)cc2F)c[nH]c2nncc1-2 = 80.1

inhibition at 10 µM measured on COc1cc(F)ccc1-c1ncnc(Nc2cccc(C[S@](C)(=N)=O)c2)n1 = 41.7
